# System: HepaRG
# assay_name: LDH release cytotoxicity, % of total lysis control; higher = more cytotoxic
# applied_conditions: 31.6228 µM; 48 h
Structures can show the parent of a compound that is named as a salt.
Entries annotated with measured LDH release cytotoxicity
readout: LDH release cytotoxicity (%)

[[record]]
molecule = "CCC(C)(CC)c1cc(NC(=O)c2c(OC)cccc2OC)on1"
measured_on = "HepaRG"
recorded_value = -1.59

[[record]]
molecule = "O=S1(=O)CCCO1"
measured_on = "HepaRG"
recorded_value = -0.817

[[record]]
molecule = "COc1ccc(C(=CC(=O)N2CCOCC2)c2ccc(Cl)cc2)cc1OC"
measured_on = "HepaRG"
recorded_value = -0.618

[[record]]
molecule = "CC(C)(c1ccccc1)c1ccc(O)cc1"
measured_on = "HepaRG"
recorded_value = 2.91

[[record]]
molecule = "COS(=O)(=O)OC [Dimethyl sulfate]"
measured_on = "HepaRG"
recorded_value = -1.17

[[record]]
molecule = "CC(C)(C)c1cccc(C(C)(C)C)c1O"
measured_on = "HepaRG"
recorded_value = -2.37

[[record]]
molecule = "Cc1ccc(O)c(C)c1"
measured_on = "HepaRG"
recorded_value = -0.59

[[record]]
molecule = "CCCN(CCC)c1c([N+](=O)[O-])cc(C(C)C)cc1[N+](=O)[O-]"
measured_on = "HepaRG"
recorded_value = -1.55

